Data provenance is patent US20230109839A1.

# measured.target: human Nav1.1 (Homo sapiens)
# Construct: host or cells: HEK293
# assay.explanation: Amplification of Nav1.1-derived voltage-gated sodium current (Nav1.1 current), automated patch clamp (Test 1)
# Assay type: cell-based
# condition.label: Concentration for evaluation 1 μM; HEK293 cell line stably expressing human Nav1.1
# Description: Test 1: Evaluation of the Amplification of Nav1.1-Derived Voltage-Gated Sodium Current (Nav1.1 Current) by Using a Cell Line Stably Expressing Human Nav1.1 (1) Preparation of Test Compound Solution […] The effect of test compounds on the amplification of Nav1.1-derived voltage-gated sodium current was evaluated by using a cell line stably expressing human Nav1.1 and HTS automated patch clamp system. […] The Nav1.1 current amplification rates of test compounds were calculated by the following formula: […]
measured.endpoint: Nav1.1 current amplification rate (%)
Write the number in % without appending the unit.

# count of solved cases: 5
CN(c1cnc2cnn(CC(=O)Nc3ccc4ccncc4c3)c2n1)C1CC1
152
CC1CC=C(c2ccc(=O)n(CC(=O)Nc3cccc(-n4ccnc4)c3)n2)CC1 (stereo not shown)
174
O=C(Cn1ncc2ncc(N3CCC4(CC4)C(F)(F)C3)nc21)Nc1ccc2ncnn2c1
25
CC1CC=C(c2ccc(=O)n(CC(=O)Nc3ccn4cncc4c3)n2)CC1 (stereo not shown)
241
CN(c1cnc2cnn(CC(=O)Nc3ccc4ncncc4c3)c2n1)C1CC1
71

*Q* Item under review: CC1CC=C(c2ccc(=O)n(CC(=O)Nc3ccc(C#N)nc3)n2)CC1 (stereo not shown) . Reported Nav1.1 current amplification rate (%)?
*A* 200

*Q* Item under review: CC1CC=C(c2ccc(=O)n(CC(=O)N3CCc4c(-c5cn[nH]c5)cncc43)n2)CC1 (stereo not shown) . Reported Nav1.1 current amplification rate (%)?
*A* 265

*Q* Item under review: CC1CC=C(c2ccc(=O)n(CC(=O)Nc3cncc(C4=COCCC4)c3)n2)CC1 (stereo not shown) . Reported Nav1.1 current amplification rate (%)?
*A* 13

*Q* Item under review: `CN(CC1CCC1)c1cnc2cnn(CC(=O)Nc3ccn4ncnc4c3)c2n1` . Reported Nav1.1 current amplification rate (%)?
*A* 255

*Q* Item under review: `CN(c1cnc2cnn(CC(=O)Nc3ccc4oc(C(F)F)nc4c3)c2n1)C1CCCC1` . Reported Nav1.1 current amplification rate (%)?
*A* 132

*Q* Item under review: `CC1(C)CCN(c2cnc3cnn(CC(=O)Nc4ccc5ncnn5c4)c3n2)CC1` . Reported Nav1.1 current amplification rate (%)?
*A* 23

*Q* Item under review: `CN(c1cnc2cnn(CC(=O)Nc3cncc(Br)c3)c2n1)C1CCC1` . Reported Nav1.1 current amplification rate (%)?
*A* 33

*Q* Item under review: `CN(c1cnc2cnn(CC(=O)Nc3ccn4ccnc4c3)c2n1)C1CCC1` . Reported Nav1.1 current amplification rate (%)?
*A* 41

---

# measured.target: human Nav1.1 (Homo sapiens)
# Construct: host or cells: HEK293
# assay.explanation: Amplification of Nav1.1-derived voltage-gated sodium current (Nav1.1 current), automated patch clamp (Test 1)
# Assay type: cell-based
# condition.label: Concentration for evaluation 1 μM; HEK293 cell line stably expressing human Nav1.1
We begin with a simple list: items and their reported Nav1.1 current amplification rate (%).
Write the number in % without appending the unit.

O=C(Cn1ncc2cnc(N3CCC4(CC4)C(F)(F)C3)nc21)Nc1ccn2ncnc2c1
161
CN(c1cnc2cnn(CC(=O)Nc3ccc4cnccc4n3)c2n1)C1CC1
17
CC1CC=C(c2ccc(=O)n(CC(=O)N3CCc4c3ccnc4-c3cn[nH]c3)n2)CC1 (stereo not shown)
113

// next item, Nav1.1 current amplification rate (%) requested
*Q* Item under review: CC1CC=C(c2ccc(=O)n(CC(=O)Nc3cnc4c(cnn4C)c3)n2)CC1 (stereo not shown) . Reported Nav1.1 current amplification rate (%)?
*A* 57
